# System: DMS-114
# TEST METHOD NOTES: NCI tumour cell line growth inhibition, 48 h
Calls of active or inactive are those of the source. Cut-off read from the data, not from the text of the source: active = GI50 up to about 1.1 µM and inactive = higher.
ENDPOINT LABEL: GI50

Below are worked cases with known answers.
| MOLECULE | GI50 |
| --- | --- |
| CN(C)c1ccc(C(C=C2c3ccccc3Sc3ccccc32)=C(C#N)C#N)cc1 | 56.4 µM (inactive) |
| CCOC(=O)C1=C(C)NC(=O)NC1c1ccc(OC)cc1OC (stereo not drawn) | > 100 µM (inactive) |
| CCCCCCCCCCCC(=O)c1c(O)cccc1O | 19.2 µM (inactive) |
| COc1ccc2c3c(coc13)C(CCC(=O)O)CC2 (stereo not drawn) | > 100 µM (inactive) |
| O=C1C=CC(=O)c2nc3c(cc21)CCC3 | 18.3 µM (inactive) |
| CC(=O)NC(CCCN(Cc1ccccc1)C(=O)NCCCl)C(=O)NCc1ccccc1 (stereo not drawn) | > 100 µM (inactive) |
| COc1cc(Cn2c(=S)ss/c2=N\C(=S)N(C)C)cc(OC)c1OC | 2.93 µM (inactive) |

From here, focus on the item given below.
Q: Requested read-out: GI50. Entry: N=C(N)N/N=C/c1c[nH]c2ccccc12
Ans: 81.8 µM (inactive)
